# measurement.protocol: Dog pharmacokinetic study, single oral HM04 fumarate salt 3, 10, 30 mg/kg (Example 10)
# Format: in vivo, male Beagle dogs
# condition.parameters: male, Beagle, plasma, 10 mg/kg oral, n=4
property: Tmax (h)
The response must be a number in h with no trailing unit.

What the record says about CN1CCC(N(C)C(=O)N[C@H](c2ccc(-c3cnccn3)c(Cl)c2Cl)C(F)(F)F)CC1.O=C(O)/C=C/C(=O)O [HM04 fumarate salt] : Tmax is 1

###

# measurement.protocol: Dog pharmacokinetic study, single oral HM04 fumarate salt 3, 10, 30 mg/kg (Example 10)
# Assay type: in vivo, male Beagle dogs
# condition.parameters: male, Beagle, plasma, 10 mg/kg oral, 8 hours, n=4
property: concentration at 8 h (ng/mL)
The reply should be a number in ng/mL, with the unit left off.

GET /value?item= CN1CCC(N(C)C(=O)N[C@H](c2ccc(-c3cnccn3)c(Cl)c2Cl)C(F)(F)F)CC1.O=C(O)/C=C/C(=O)O [HM04 fumarate salt] &field=concentration at 8 h returns 468

###

# measurement.protocol: Dog pharmacokinetic study, single oral HM04 fumarate salt 3, 10, 30 mg/kg (Example 10)
# Type: in vivo, male Beagle dogs
# condition.parameters: male, Beagle, plasma, iv, 10 mg/kg, Dog 3, 10 mg/kg intravenous, read-out: individual IV AUC∞
property: AUC(0-inf) (ng·h/mL)
Write the value in ng·h/mL as a bare number.

The molecule identified as CN1CCC(N(C)C(=O)N[C@H](c2ccc(-c3cnccn3)c(Cl)c2Cl)C(F)(F)F)CC1.O=C(O)/C=C/C(=O)O [HM04 fumarate salt] registered its AUC(0-inf) at 15500

###

# measurement.protocol: Dog pharmacokinetic study, single oral HM04 fumarate salt 3, 10, 30 mg/kg (Example 10)
# Assay type: in vivo, male Beagle dogs
# condition.parameters: male, Beagle, plasma, 3 mg/kg oral, n=4
property: Tmax (min)
Express it in min; write the number only.

Summary for this molecule, CN1CCC(N(C)C(=O)N[C@H](c2ccc(-c3cnccn3)c(Cl)c2Cl)C(F)(F)F)CC1.O=C(O)/C=C/C(=O)O [HM04 fumarate salt] : Tmax is 52.5

###

# measurement.protocol: Dog pharmacokinetic study, single oral HM04 fumarate salt 3, 10, 30 mg/kg (Example 10)
# Type: in vivo, male Beagle dogs
# condition.parameters: male, Beagle, plasma, iv, 10 mg/kg, Dog 2, 10 mg/kg intravenous, read-out: individual IV AUC∞
# Procedure: The pharmacokinetics of HM04 in plasma after single oral administration of HM04 fumarate salt to 6-week old male Sprague Dawley rats and male Beagle dogs (1-5 years of age) was investigated. Test formulations of 0.6 mg/mL, 2 mg/mL, and 6 mg/mL HM04 fumarate salt (based on weight of the free base) were prepared in 5% glucose solution. […] Plasma HM04 concentrations were measured by LC-MS/MS following protein precipitation in the 96-well plate format. […]
property: AUC(0-inf) (ng·h/mL)
Write the value in ng·h/mL as a bare number.

Entry CN1CCC(N(C)C(=O)N[C@H](c2ccc(-c3cnccn3)c(Cl)c2Cl)C(F)(F)F)CC1.O=C(O)/C=C/C(=O)O [HM04 fumarate salt] ; AUC(0-inf) = 13200

###

# measurement.protocol: Rat pharmacokinetic study, single oral HM04 fumarate salt 3, 10, 30 mg/kg (Example 10)
# Type: in vivo, male Sprague Dawley rats
# condition.parameters: male, Sprague Dawley, plasma, 30 mg/kg oral, n=4
property: AUC(0-t) (µg·h/mL)
Kindly provide the numeric value in µg·h/mL only, without the unit symbol.

Value of AUC(0-t) reported for the compound CN1CCC(N(C)C(=O)N[C@H](c2ccc(-c3cnccn3)c(Cl)c2Cl)C(F)(F)F)CC1.O=C(O)/C=C/C(=O)O [HM04 fumarate salt] is 26.2

###

# measurement.protocol: Rat pharmacokinetic study, single oral HM04 fumarate salt 3, 10, 30 mg/kg (Example 10)
# Assay type: in vivo, male Sprague Dawley rats
# condition.parameters: male, Sprague Dawley, plasma, 30 mg/kg oral, 24 hours, n=4
property: concentration at 24 h (ng/mL)
Provide only the numeric value, understood in ng/mL.

// concentration at 24 h lookup, compound = CN1CCC(N(C)C(=O)N[C@H](c2ccc(-c3cnccn3)c(Cl)c2Cl)C(F)(F)F)CC1.O=C(O)/C=C/C(=O)O [HM04 fumarate salt] , result: 14.6

###

# measurement.protocol: Rat pharmacokinetic study, single oral HM04 fumarate salt 3, 10, 30 mg/kg (Example 10)
# Type: in vivo, male Sprague Dawley rats
# condition.parameters: male, Sprague Dawley, plasma, 30 mg/kg oral, n=4
property: half-life (h)
Provide only the numeric value, understood in h.

// recorded half-life for CN1CCC(N(C)C(=O)N[C@H](c2ccc(-c3cnccn3)c(Cl)c2Cl)C(F)(F)F)CC1.O=C(O)/C=C/C(=O)O [HM04 fumarate salt] : 2.65

###

# measurement.protocol: Rat pharmacokinetic study, single oral HM04 fumarate salt 3, 10, 30 mg/kg (Example 10)
# Format: in vivo, male Sprague Dawley rats
# condition.parameters: male, Sprague Dawley, plasma, 10 mg/kg oral vs 10 mg/kg intravenous mean AUC
property: bioavailability

Reported bioavailability of CN1CCC(N(C)C(=O)N[C@H](c2ccc(-c3cnccn3)c(Cl)c2Cl)C(F)(F)F)CC1.O=C(O)/C=C/C(=O)O [HM04 fumarate salt] : 54.4%

###

# measurement.protocol: Rat pharmacokinetic study, single oral HM04 fumarate salt 3, 10, 30 mg/kg (Example 10)
# Format: in vivo, male Sprague Dawley rats
# condition.parameters: male, Sprague Dawley, plasma, 10 mg/kg oral, n=4
property: Cmax (ng/mL)
// return numeric value only (unit: ng/mL, not printed)

GET /value?item= CN1CCC(N(C)C(=O)N[C@H](c2ccc(-c3cnccn3)c(Cl)c2Cl)C(F)(F)F)CC1.O=C(O)/C=C/C(=O)O [HM04 fumarate salt] &field=Cmax returns 769
